In this section, each of the molecules is paired with its reported logP.

molecule	logP
CCCCCCCCCCCCCC(=O)N1c2ccc(C)cc2[C@H]2CN(C)CC[C@H]21 (relative stereo)	6.7
CCCCCCCCCCCC(=O)N1c2ccc(C)cc2[C@H]2CN(C)CC[C@H]21 (relative stereo)	5.66
CCCCCCC(=O)N1c2ccc(C)cc2[C@H]2CN(C)CC[C@H]21 (relative stereo)	3.57
CCCCCCCCC(=O)N1c2ccc(C)cc2[C@H]2CN(C)CC[C@H]21 (relative stereo)	4.41
Cc1ccc2c(c1)[C@H]1CN(C)CC[C@H]1N2C(=O)C=Cc1ccccc1 (relative stereo)	3.49
CCCCCCCCCCCCCCCC(=O)N1c2ccc(C)cc2[C@H]2CN(C)CC[C@H]21 (relative stereo)	7.33
Cc1ccc2c(c1)[C@H]1CN(C)CC[C@H]1N2 (relative stereo)	1.6
CCCCC(CC)C(=O)N1c2ccc(C)cc2C2CN(C)CCC21 (stereo not given)	4.14
CCCCCCCCCC(=O)N1c2ccc(C)cc2[C@H]2CN(C)CC[C@H]21 (relative stereo)	4.83
CC(=O)N1c2ccc(C)cc2[C@H]2CN(C)CC[C@H]21 (relative stereo)	1.25
